target: Adenosine receptors; A1 & A3 (Homo sapiens) (UniProt P30542+P0DMS8); assay: Ratio of Ki for human adenosine A1 receptor to Ki for human adenosine A3 receptor
Sequence (P0DMS8 whole entry, looked up): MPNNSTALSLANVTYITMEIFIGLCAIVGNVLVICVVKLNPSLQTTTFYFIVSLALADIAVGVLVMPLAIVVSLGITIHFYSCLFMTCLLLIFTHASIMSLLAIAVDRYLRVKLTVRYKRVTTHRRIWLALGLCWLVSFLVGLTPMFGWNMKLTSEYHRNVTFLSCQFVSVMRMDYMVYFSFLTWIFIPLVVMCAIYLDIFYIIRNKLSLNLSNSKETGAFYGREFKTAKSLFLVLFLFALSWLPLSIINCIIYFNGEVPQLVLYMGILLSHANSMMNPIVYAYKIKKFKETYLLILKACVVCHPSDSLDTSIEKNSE
Sequence (P30542 whole entry, looked up): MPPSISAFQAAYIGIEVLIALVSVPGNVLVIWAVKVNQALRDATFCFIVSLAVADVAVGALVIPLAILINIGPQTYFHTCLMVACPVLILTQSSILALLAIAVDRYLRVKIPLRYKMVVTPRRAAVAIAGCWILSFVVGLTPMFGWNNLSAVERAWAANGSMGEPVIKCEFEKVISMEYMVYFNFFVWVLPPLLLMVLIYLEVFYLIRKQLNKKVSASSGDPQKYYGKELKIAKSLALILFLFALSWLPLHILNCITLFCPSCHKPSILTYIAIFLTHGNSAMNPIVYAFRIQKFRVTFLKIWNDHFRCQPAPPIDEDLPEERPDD
Measured Ratio Ki, listed per entry.

Completed entries (count: 2):
[[record]]
compound = "COc1cc(-c2nc3c([nH]2)C2=NC(C)CN2C(=O)N3Cc2ccccc2)on1 (racemic)"
system = "Adenosine receptors; A1 & A3 (Homo sapiens) (UniProt P30542+P0DMS8)"
result = 1800

[[record]]
compound = "C=CCN1C(=O)N2CC(C)N=C2c2[nH]c(-c3cc(C)nn3C)nc21 (racemic)"
system = "Adenosine receptors; A1 & A3 (Homo sapiens) (UniProt P30542+P0DMS8)"
result = 450


For this compound ( Cc1cc(-c2nc3c([nH]2)C2=NC(C)CN2C(=O)N3Cc2ccccc2)nn1C (centres undefined) ), measured Ratio Ki is > 400

The recorded Ratio Ki for entry C=CCN1C(=O)N2CC(C)N=C2c2[nH]c(-c3cc(OCc4ccccc4)nn3C)nc21 (racemic) equals 202
